The measured values listed here are drawn from patent US20260132123A1.

Here, each record is paired with measured Alamar Blue % Viability (50 μM Dose) data.
Tested on: mtsABAD HEK293 cells
Test: Alamar Blue cell viability assay
Format: cell-based, human
Settings: 50 μM compound
property: Alamar Blue % Viability (50 μM Dose)

# molecule, target or system, reported value
rows = [
    ("COc1ccc(-c2ccccc2[C@H]2CCCN2C(=O)c2sccc2C)cc1 (single isomer, unassigned) [ESC1002331]", "mtsABAD HEK293 cells", "88.56%"),
    ("CC(C)CN(C(=O)c1ccccc1F)c1cccc(N(C)Cc2cccnc2)c1 [ESC1002210]", "mtsABAD HEK293 cells", "93.200%"),
    ("Cc1ccsc1C(=O)N1CCC[C@H]1c1ccccc1-c1ccc(N2CCOCC2)cc1 [ESC1002318]", "mtsABAD HEK293 cells", "85.76%"),
    ("CC(C)CN(C(=O)c1ccccc1F)c1cccc(N(C)Cc2cn3ccccc3n2)c1 [ESC1002214]", "mtsABAD HEK293 cells", "82.439%"),
    ("COc1cccc(-c2ccccc2[C@@H]2CCCN2C(=O)c2sccc2C)c1OC [ESC1002326]", "mtsABAD HEK293 cells", "88.92%"),
    ("COc1ccc(-c2ccccc2[C@H]2CCCN2C(=O)c2ccc(C)cc2)cn1 (stereo in doubt) [ESC1002120]", "mtsABAD HEK293 cells", "81.743%"),
    ("CC(C)CN(C(=O)c1cccc2ccccc12)c1cccc(N(C)Cc2cnc[nH]2)c1 [ESC1002172]", "mtsABAD HEK293 cells", "85.337%"),
    ("CC(C)CN(C(=O)c1ccccc1F)c1cccc(N(C)Cc2ccncc2)c1 [ESC1002211]", "mtsABAD HEK293 cells", "82.553%"),
]

---

Assay: Mouse hepatocyte stability
Format: in vitro ADME
Settings: mouse hepatocytes, half-life
property: half-life (min)

# molecule, reported value
rows = [
    ("O=C(c1sccc1Cl)N1CCC[C@H]1c1ccccc1-c1cc(O)ccc1F (single isomer, unassigned)", 4),
    ("Cc1ccsc1C(=O)N1CCC[C@H]1c1ccccc1-c1cccc(Cl)c1 (single isomer, unassigned)", 4.65),
    ("Cc1ncc(CN(C)c2cccc(N(CC(C)C)C(=O)c3ccccc3F)c2)[nH]1", 6.16),
    ("O=C(c1[nH]ncc1Cl)N1CCC[C@H]1c1ccccc1-c1cccc(O)c1 (single isomer, unassigned)", 15.2),
    ("COc1cccc(-c2ccccc2[C@@H]2CCCN2C(=O)c2[nH]ncc2Cl)c1 (single isomer, unassigned)", 5.33),
    ("Cc1ccsc1C(=O)N(CC(C)C)c1cccc(N(C)Cc2c[nH]cn2)c1", 46.2),
    ("O=C(c1sccc1Cl)N1CCC[C@H]1c1ccccc1-c1cccc(O)c1 (single isomer, unassigned)", 3.14),
]

---

Here, each record is paired with measured Alamar Blue % Viability (50 μM Dose) data.
Test system: mtsABAD HEK293 cells
Assay: Alamar Blue cell viability assay
Assay type: cell-based, human
Details: 50 μM compound
Description: Cell viability was assessed via fluorescence change using the commercially available Alamar Blue from ThermoFisher. HEK293 cells overexpressing mts17β-HSD10 were cultured in phenol-red free media (10% FBS, 1 mM sodium pyruvate, 100 units penicillin, 0.1 mg/mL streptomycin and 2 mM L-glutamine) and seeded at a density of 10,000 cells per well (100 μL, 96 well plates). […] Fluorescence was measured at 530 nm excitation and 590 nm emission using a SpectraMaxM2e spectrophotometer.
property: Alamar Blue % Viability (50 μM Dose) (%)

# compound, reported value
records = [
    ("CCc1ccc(CN(C)c2cccc(N(CC(C)C)C(=O)c3ccccc3F)c2)cn1 [ESC1002213]", 81.860),
    ("Cc1ccsc1C(=O)N1CCC[C@H]1c1ccccc1-c1cnn(C2CCOCC2)c1 [ESC1002341]", 96.72),
    ("CC(C)CN(C(=O)c1ccccc1F)c1cccc(N(C)Cc2cn(C)cn2)c1 [ESC1002200]", 79.220),
    ("COCCN(C(=O)c1ccccc1F)c1cccc(N(C)Cc2c[nH]cn2)c1 [ESC1002266]", 89.86),
    ("Cc1ccsc1C(=O)N1CCC[C@H]1c1ccccc1-c1cccc(Cl)c1 [ESC1002321]", 84.52),
    ("CCN(C(=O)c1ccccc1F)c1cccc(N(C)Cc2cnc[nH]2)c1 [ESC1002234]", 86.98),
    ("CN(Cc1c[nH]cn1)c1cccc(N(CC2CC2)C(=O)c2ccccc2F)c1 [ESC1002342]", 85.04),
    ("COc1cccc(-c2ccccc2[C@@H]2CCCN2C(=O)c2sccc2C)c1 [ESC1002338]", 82.98),
    ("Cc1ccc(-c2ccccc2[C@@H]2CCCN2C(=O)c2sccc2C)cc1 [ESC1002337]", 85.13),
    ("Cc1ccccc1-c1ccccc1[C@@H]1CCCN1C(=O)c1sccc1C [ESC1002323]", 96.19),
    ("COc1ccc(-c2ccccc2[C@@H]2CCCN2C(=O)c2sccc2C)cn1 (single isomer, unassigned) [ESC1002161]", 92.566),
    ("COc1ccc(-c2ccccc2[C@H]2CCCN2C(=O)c2ccccc2F)cn1 (stereo in doubt) [ESC1002119]", 79.180),
    ("CC(C)CN(C(=O)c1ccccc1F)c1cccc(N(C)Cc2ncc[nH]2)c1 [ESC1002201]", 80.481),
    ("COc1ccc(-c2ccccc2[C@@H]2CCCN2C(=O)c2sccc2C)cc1 (single isomer, unassigned) [ESC1002332]", 87.68),
    ("CC(C)CN(C(=O)CCc1ccccc1)c1cccc(N(C)Cc2cnc[nH]2)c1 [ESC1002168]", 82.648),
    ("Cc1ccsc1C(=O)N1CCC[C@@H]1c1ccccc1-c1cccnc1 [ESC1002090]", 102.627),
    ("CN(C)CCN(C(=O)c1ccccc1F)c1cccc(N(C)Cc2c[nH]cn2)c1 [ESC1002334]", 92.96),
    ("CC(C)CN(C(=O)c1ccccc1F)c1ccc2c(c1)N(Cc1cnc[nH]1)CCC2 [ESC1002236]", 82.69),
]
